# Test system: 786-0 renal
# EXPERIMENTAL_DETAILS: NCI tumour cell line growth inhibition, 48 h
Items are presented alongside their recorded TGI.

COC(=O)C1=C(C)NC(C)=C(C(=O)OC)C1/C=C(\Cl)c1ccc(Cl)c(Cl)c1 = 30.8 µM

With those in mind, consider the next compound.
Request: What value of TGI has been recorded for this entry: O=C(CC(=O)Nc1cccc(Cl)c1)NNCC(=O)Nc1nnc(-c2ccccc2)s1
Result: 84.3 µM

====

# Test system: LOX IMVI melanoma
# EXPERIMENTAL_DETAILS: NCI tumour cell line growth inhibition, 48 h; in the data active means GI50 below about 0.43 µM; inactive means the rest
Mark one answer only. Choices: Yes = active, No = inactive

Please review the entries below; each comes with its answer.
CC(=O)Nc1ccc(/C=C/C(=O)c2ccccc2)cc1 = No
O=C1CC(c2cccc(O)c2)C2(C(=O)NC(=S)NC2=O)C(c2cccc(O)c2)C1 (stereo not given) = No
CCN1/C(=C/C=C/c2n(-c3ccccc3)c3ccc(-c4nc5ccccc5s4)cc3[n+]2CC)N(c2ccccc2)c2ccc(-c3nc4ccccc4s3)cc21 = No

Request: Look up the recorded call for CCCCCc1nc2c(c3c1CCCC3)CCCC2 in this test.
Result: No

Request: Look up the recorded call for Fc1ccc(-c2nn3c(-c4ccc(F)c(Cl)c4)nnc3s2)cc1 in this test.
Result: No

Request: Look up the recorded call for COc1cccc(C2C3=C(COC3=O)N(CCO)c3cc(OC)ccc32)c1 (stereo not given) in this test.
Result: Yes

Request: Look up the recorded call for [Cl][Sn]([Cl])([c]1ccccc1)[c]1ccccc1 in this test.
Result: No

Request: Look up the recorded call for CC(=O)N1N=C(c2ccc(Nc3nc(Nc4ccc(Cl)cc4)nc(Nc4ccc(Cl)cc4)n3)cc2)CC1c1ccc([N+](=O)[O-])cc1 (stereo not given) in this test.
Result: No

Request: Look up the recorded call for Nc1ncnc2c1ncn2Cc1ccc(C23CC4CC(CC(C4)C2)C3)c(OCc2cc(F)c(F)cc2F)c1 in this test.
Result: No

Request: Look up the recorded call for O=C(Nc1ccc(F)cc1)Nc1ccccc1CNc1nc(Nc2ccc(OCCN3CCCC3)cc2)ncc1Cl in this test.
Result: No
